# Tested on: OVCAR-8 ovarian
# procedureText: NCI tumour cell line growth inhibition, 48 h
List of TGI values.

Example molecules with recorded TGI:
molecule: O=c1c2c3c(sc2nc2n1N=C(c1ccc(Br)cc1)CS2)CCCC3
val: > 100 µM
//
molecule: CC/C=N\N1C(N)=C(C#N)C(C#N)(C#N)C1CC (configuration not stated)
val: > 100 µM
//
molecule: CC[C@H](C)[C@H](NC(=O)c1cccn1C)C(=O)N(C)[C@H](C[C@@H](OC(C)=O)c1nc(C(=O)N[C@@H](Cc2ccccc2)C[C@H](C)C(=O)OC)cs1)C(C)C
val: > 33.3 µM
//
molecule: Nc1cccc2c1C(=O)c1cccc(NC(=O)c3ccccc3)c1C2=O
val: > 38.8 µM
//
molecule: COc1ccc(-c2cc(=O)c3c(O)c(OC)c(OC)c(OC)c3o2)cc1
val: > 100 µM

Problem: Please look up its TGI: Cc1cc(O)c(-c2ccc([C@@H](C)CN(C)C)cc2)c2c1[nH]c(=O)c1sccc12
Solution: 34.9 µM

Problem: Another: CCC[CH2][Sn]1([CH2]CCC)[S]CC[N]1S(=O)(=O)c1ccc(C)cc1
Solution: 4.16 µM

Problem: Consider next the molecule COc1ccc([C@]23CCC4(OCC(C)(C)CO4)[C@H]4CON(O[C@H](O[C@@H]5CCCCC5C(C)(C)c5ccccc5)C2)[C@@H]43)cc1OC (some centres not stated) in the same way.
Solution: > 100 µM

Problem: Check O=C(Nc1cccc(C(F)(F)F)c1)Oc1ccc(Cl)c2cccnc12 too.
Solution: 6.16 µM

Problem: Let us now turn to O=c1/c(=N\Nc2ccccc2)c2cccc3ccc4cccc1c4c32
Solution: > 100 µM

Problem: Same read-out for Nc1c(N2CCOCC2)c(=O)nc2[nH]/c(=C\c3ccccc3O)c(=O)n12 ?
Solution: > 100 µM

Problem: Then this molecule: c1ccc(OC2=NC3=S(S2)SC(Oc2ccccc2)=N3)cc1
Solution: 57.6 µM

Problem: # repeat for NC(=O)C1CCN(Cc2c(Cl)c(Cl)c(CN3CCC(C(N)=O)CC3)c(Cl)c2Cl)CC1
Solution: > 100 µM

Problem: Next: O=C1C=CC(=O)c2c(O)c(N3CCC[C@@H]3CO)c(Cl)c(O)c21
Solution: 4.13 µM

Problem: Also, CCOC(=O)[C@@H](Cc1ccc(CCl)cc1)NC(C)=O please.
Solution: > 100 µM

Problem: Would you mind doing CCc1nc2c(c(N(C)C)c1C(=O)OC)CCc1ccccc1-2 as well?
Solution: > 100 µM

Problem: What about this molecule? CNC(=S)N1CCN(C(C)=O)C1=S
Solution: > 100 µM

* * *

# Tested on: NCI/ADR-RES ovarian
# procedureText: NCI tumour cell line growth inhibition, 48 h
This listing pairs compounds with measured TGI.

compound: N#Cc1c(-c2ccc([N+](=O)[O-])cc2)c(C#N)c(=O)n(NS(=O)(=O)c2ccccc2)c1O
TGI: > 100 µM
--
compound: C=C1CCC2C3(C)COC(c4ccccc4Cl)OC3CCC2(C)C1/C=C/C1=CCOC1=O (centres undefined)
TGI: > 100 µM
--
compound: O=C1N=C(Nc2nc(-c3csc(NC4=NC(=O)/C(=C\c5ccccc5)S4)n3)cs2)S/C1=C/c1ccccc1
TGI: > 50 µM
--
compound: COc1cc(C(=O)c2cocc2C(=O)c2ccc3c(c2)OCO3)cc(OC)c1OC
TGI: 1.3 µM
--
compound: CC1(C)OCC(C2OC(C)(C)OC2[C@H]2O[C@@]3(O)[C@H]4[C@H](C=CC[C@@H]42)[C@@H](OCc2ccccc2)[C@H](OCc2ccccc2)[C@H]3OCc2ccccc2)O1 (some centres undefined)
TGI: > 100 µM
--
compound: COc1ccc(-c2cc(=O)c3c(O)c(OC)c(OC)c(OC)c3o2)cc1
TGI: > 100 µM
--
compound: Clc1ccc(/C(=C/c2ccccc2)Cn2ccnc2)cc1
TGI: 66.6 µM
--
compound: Cc1cc(S(=O)(=O)N=C2Nc3cccc4cccc(c34)N2)c(S)cc1Cl
TGI: > 100 µM

Problem: For NCI/ADR-RES ovarian, provide TGI of NC(=O)C1CCN(Cc2c(Cl)c(Cl)c(CN3CCC(C(N)=O)CC3)c(Cl)c2Cl)CC1 please.
Solution: > 100 µM

Problem: Moving on to N#CCCN(CCC#N)c1ccc(C(N=Nc2ccccc2)=Nc2ccc(F)cc2)cc1
Solution: > 100 µM

Problem: Check C[As+](C)(c1ccc(Br)c([N+](=O)[O-])c1)c1ccc(Br)c([N+](=O)[O-])c1.O=[N+]([O-])O too.
Solution: > 100 µM

Problem: What do you have for Cc1cccc2c1[nH]c(=O)c1c3ccccc3cn21 ?
Solution: 34.8 µM

Problem: Same read-out for NCCCCNCCCN1CCOC1=O ?
Solution: > 100 µM

Problem: Can you check O=C(c1ccco1)N(C(=O)N1CCC(c2ccccc2)CC1)c1ccccc1 next?
Solution: 91 µM

Problem: Input C=C(C)[C@@H]1CC[C@]2(C(=O)NS(=O)(=O)c3ccccc3)CC[C@]3(C)[C@H](CC[C@@H]4[C@@]5(C)CC[C@H](OC(=O)NS(=O)(=O)c6ccccc6)C(C)(C)[C@@H]5CC[C@]43C)[C@@H]12
Solution: 24 µM

Problem: Ok, now CO/N=C(\COc1ccc2oc(-c3ccccc3)cc(=O)c2c1)c1ccc(F)cc1
Solution: 49.9 µM

Problem: // next record O=C(Nc1nn(C(=O)c2cccnc2)c(=O)s1)c1ccc(Cl)cc1
Solution: > 100 µM

Problem: Same again, this time with COc1ccc(C(=O)/C=C/SC(=NC#N)SC)cc1
Solution: 42.3 µM

Measured values drawn from PubChem BioAssay (NCI) for this set.
